experimental_protocol: Apparent partition coefficient (P) between octanol and pH 7.4 aqueous buffer at 21° C.
cond: octanol / phosphate buffer
readout_kind: logD
Keep the answer to the number alone.

Lookup: Which measured logD value corresponds to CCCCCC(=O)Oc1ccc2c3c1O[C@H]1[C@@H](O)C=C[C@H]4[C@@H](C2)N(C)CC[C@@]341 ?
Found: 2.04

====

experimental_protocol: in vitro
cond: human, pH 7
In this section, each of the molecules is paired with its reported Papp.
Form entry: value (×10⁻⁶ cm/s) — number only.

CCCCCC(=O)Oc1ccc2c3c1O[C@H]1[C@@H](O)C=C[C@H]4[C@@H](C2)N(C)CC[C@@]341
3.61
CCC(=O)Oc1ccc2c3c1O[C@H]1[C@@H](OC(=O)CC)C=C[C@H]4[C@@H](C2)N(C)CC[C@@]341
0.278

Next molecule, Papp to be filled in.
Lookup: Fill in: Papp of CCCCCC(=O)Oc1ccc2c3c1O[C@H]1[C@@H](OC(=O)CCCCC)C=C[C@H]4[C@@H](C2)N(C)CC[C@@]341 is ___
Found: 38.9

====

experimental_protocol: In vitro skin permeation (diffusion) study, open Franz diffusion cells, whole abdominal human skin
cond: steady state; IPM solution not saturated, 200 mg/ml; human skin
readout_kind: Flux, IPM (μg/cm^2 /h)
Expressed in μg/cm^2 /h, but write only the number.

CC(=O)Oc1ccc2c3c1O[C@H]1[C@@H](O)C=C[C@H]4[C@@H](C2)N(C)CC[C@@]341
11.4
CCCCCC(=O)Oc1ccc2c3c1O[C@H]1[C@@H](OC(=O)CCCCC)C=C[C@H]4[C@@H](C2)N(C)CC[C@@]341
11.7
CCCCC(=O)Oc1ccc2c3c1O[C@H]1[C@@H](O)C=C[C@H]4[C@@H](C2)N(C)CC[C@@]341
16.5

Lookup: I have this molecule here, CC(C)C(=O)Oc1ccc2c3c1O[C@H]1[C@@H](O)C=C[C@H]4[C@@H](C2)N(C)CC[C@@]341 , and I need its recorded Flux, IPM.
Found: 27.0

====

The following compounds are listed with their measured solubility at 24 h values.
experimental_protocol: physchem
cond: isopropyl myristate, organic solvent or mixture

CCCCCC(=O)Oc1ccc2c3c1O[C@H]1[C@@H](OC(=O)CCCCC)C=C[C@H]4[C@@H](C2)N(C)CC[C@@]341
> 200 mg/mL
CCCCCC(=O)Oc1ccc2c3c1O[C@H]1[C@@H](O)C=C[C@H]4[C@@H](C2)N(C)CC[C@@]341
> 150 mg/mL

Lookup: Quick one: solubility at 24 h for CCC(=O)Oc1ccc2c3c1O[C@H]1[C@@H](O)C=C[C@H]4[C@@H](C2)N(C)CC[C@@]341 ?
Found: 79 mg/mL

Lookup: // query solubility at 24 h value for entry CC(C)C(=O)Oc1ccc2c3c1O[C@H]1[C@@H](OC(=O)C(C)C)C=C[C@H]4[C@@H](C2)N(C)CC[C@@]341
Found: 80 mg/mL

Lookup: I would be grateful if you could share the reported solubility at 24 h for CCC(=O)Oc1ccc2c3c1O[C@H]1[C@@H](OC(=O)CC)C=C[C@H]4[C@@H](C2)N(C)CC[C@@]341 .
Found: 41 mg/mL

====

experimental_protocol: in vitro
cond: human
# Papp values compiled below

CCCCCC(=O)Oc1ccc2c3c1O[C@H]1[C@@H](O)C=C[C@H]4[C@@H](C2)N(C)CC[C@@]341
> 0.0667 ×10⁻⁶ cm/s

Lookup: Param item = CCCCCC(=O)Oc1ccc2c3c1O[C@H]1[C@@H](OC(=O)CCCCC)C=C[C@H]4[C@@H](C2)N(C)CC[C@@]341 ; retrieve measured Papp.
Found: > 0.0444 ×10⁻⁶ cm/s
